Molecular target: T1, HLA-A*02:01 molecule
T1 construct: MHC class I molecule on T2 cells (ATCC); also called product of an HLA-A*02:01 gene; allele A*02:01
Test: flow cytometry, T2 cells
For each record, write down the corresponding log Kd.
Please give the numeric answer without any surrounding text.

Form: binder = ATLAPAVLL (synthetic 9-mer derived from EVC1) [peptide of SEQ ID NO: 10] ; log Kd = -5.56

Entry under test: LIITRKSFI (synthetic 9-mer derived from Fas) [peptide of SEQ ID NO: 29] . Its log Kd was -4.11

binder VMSHHGEKL (synthetic 9-mer derived from Helios; also called A13) [peptide of SEQ ID NO: 19] , log Kd observed: -5.08

Per the records, this binder ( YLYDPPTTI (synthetic 9-mer derived from CADM1) [peptide of SEQ ID NO: 4] ) has log Kd equal to -6.23

Value of measured log Kd for the entry LVITRKSFI (synthetic 9-mer derived from Fas) [peptide of SEQ ID NO: 30] : -4.01

Sure, the documented log Kd for LLNPNRQTI (synthetic 9-mer derived from CADM1) [peptide of SEQ ID NO: 23] is -5.24

// recorded log Kd for ALPKIRARV (synthetic 9-mer derived from EVC2) [peptide of SEQ ID NO: 12] : -5.66

Documented log Kd of ATAPPTAQL (synthetic 9-mer derived from c-Myb) [peptide of SEQ ID NO: 25] : -5
